The reader will find reported FACS Geometric Mean values listed item by item below.
target: T1, human KDR (VEGFR2) on cells (human, UniProt P35968 20-1356); assay: FACS on HUVEC, hybridoma supernatant 1:50
T1 construct: whole, on cells; also called native KDR on HUVEC; endogenously expressed KDR
T1 sequence (P35968 20-1356): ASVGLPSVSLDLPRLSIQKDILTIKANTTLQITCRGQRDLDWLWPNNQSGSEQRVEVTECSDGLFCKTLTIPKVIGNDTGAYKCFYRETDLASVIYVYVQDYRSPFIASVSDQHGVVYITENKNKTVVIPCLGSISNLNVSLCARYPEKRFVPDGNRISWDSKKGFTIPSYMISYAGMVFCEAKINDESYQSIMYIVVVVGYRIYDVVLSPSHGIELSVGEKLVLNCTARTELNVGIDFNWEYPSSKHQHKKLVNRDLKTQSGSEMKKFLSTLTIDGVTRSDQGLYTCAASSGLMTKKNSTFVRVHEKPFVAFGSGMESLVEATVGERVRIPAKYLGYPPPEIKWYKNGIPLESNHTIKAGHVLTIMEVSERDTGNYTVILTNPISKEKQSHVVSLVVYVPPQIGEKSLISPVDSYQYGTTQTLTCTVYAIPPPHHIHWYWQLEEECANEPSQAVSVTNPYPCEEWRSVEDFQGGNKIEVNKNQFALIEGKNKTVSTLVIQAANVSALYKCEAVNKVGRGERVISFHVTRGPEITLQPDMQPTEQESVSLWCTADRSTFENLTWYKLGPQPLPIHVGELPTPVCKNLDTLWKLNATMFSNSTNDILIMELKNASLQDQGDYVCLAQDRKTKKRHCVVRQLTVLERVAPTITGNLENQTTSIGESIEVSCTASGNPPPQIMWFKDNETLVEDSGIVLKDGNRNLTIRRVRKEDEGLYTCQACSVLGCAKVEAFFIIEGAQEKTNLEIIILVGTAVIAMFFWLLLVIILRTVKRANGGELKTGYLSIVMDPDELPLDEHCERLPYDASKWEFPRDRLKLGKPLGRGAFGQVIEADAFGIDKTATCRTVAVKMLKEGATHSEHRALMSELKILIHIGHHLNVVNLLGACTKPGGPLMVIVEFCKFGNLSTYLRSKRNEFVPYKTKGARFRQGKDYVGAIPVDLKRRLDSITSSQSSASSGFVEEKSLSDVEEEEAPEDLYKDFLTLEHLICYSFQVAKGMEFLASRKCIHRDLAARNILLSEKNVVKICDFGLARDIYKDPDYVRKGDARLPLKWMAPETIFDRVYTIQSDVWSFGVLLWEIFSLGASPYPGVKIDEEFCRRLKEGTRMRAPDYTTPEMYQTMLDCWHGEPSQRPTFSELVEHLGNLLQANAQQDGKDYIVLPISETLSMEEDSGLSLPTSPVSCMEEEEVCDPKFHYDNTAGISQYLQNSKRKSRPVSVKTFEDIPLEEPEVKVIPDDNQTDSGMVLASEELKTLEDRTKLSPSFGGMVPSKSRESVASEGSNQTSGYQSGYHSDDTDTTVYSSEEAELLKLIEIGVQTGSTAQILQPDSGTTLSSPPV
The answer should be a number; do not append a unit.

Sample answers from the record:
INSERT INTO measurements (binder, property_label, reported) VALUES
  ('anti-KDR monoclonal antibody 21H9 (antibody, V domains shown, Fully human mAb from XenoMouse (IgG2 or IgG4 strain); hybridoma supernatant) VH: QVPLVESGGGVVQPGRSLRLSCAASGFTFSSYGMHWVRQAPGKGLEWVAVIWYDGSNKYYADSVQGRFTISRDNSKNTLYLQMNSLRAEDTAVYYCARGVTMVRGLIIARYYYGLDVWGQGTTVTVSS VL: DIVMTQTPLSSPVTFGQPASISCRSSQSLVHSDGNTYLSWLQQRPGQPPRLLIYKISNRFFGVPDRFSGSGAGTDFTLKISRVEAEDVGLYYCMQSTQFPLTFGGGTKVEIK', 'FACS Geometric Mean', 29),
  ('anti-KDR monoclonal antibody 33C3 (antibody, V domains shown, Fully human mAb from XenoMouse (IgG2 or IgG4 strain); hybridoma supernatant) VH: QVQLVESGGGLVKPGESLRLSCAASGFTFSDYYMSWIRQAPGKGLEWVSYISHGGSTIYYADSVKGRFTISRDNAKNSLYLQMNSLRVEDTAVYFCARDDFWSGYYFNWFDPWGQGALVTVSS VL: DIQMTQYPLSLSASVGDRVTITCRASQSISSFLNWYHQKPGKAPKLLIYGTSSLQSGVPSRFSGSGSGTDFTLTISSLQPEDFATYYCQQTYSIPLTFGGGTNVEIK', 'FACS Geometric Mean', 20);

Could you now look at the following binder, please?
Query: Fill in FACS Geometric Mean for record anti-KDR monoclonal antibody 30D7 (antibody, V domains shown, Fully human mAb from XenoMouse (IgG2 or IgG4 strain); hybridoma supernatant) VH: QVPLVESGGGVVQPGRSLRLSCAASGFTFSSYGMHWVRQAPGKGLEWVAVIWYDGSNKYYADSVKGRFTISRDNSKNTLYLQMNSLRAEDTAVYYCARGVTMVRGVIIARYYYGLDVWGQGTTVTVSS VL: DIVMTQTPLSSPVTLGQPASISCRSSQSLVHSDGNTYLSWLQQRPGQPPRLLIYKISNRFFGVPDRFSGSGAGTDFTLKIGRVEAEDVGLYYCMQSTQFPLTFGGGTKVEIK
Response: 31
